Test system: Septoria tritici (SEPTTR)
Experiment: 1-day protectant test (1DP) vs. leaf blotch of wheat
Assay type: in vivo
Conditions: Zymoseptoria tritici; 1DP SEPTTR; application rate 1.8 ppm; read-out: % DC Obs (percent disease control observed)
Label Fulfilled when pest or weed control at 1.8 ppm is strictly below 3%; otherwise label Not fulfilled.

>>> print(df.to_string())
                                   compound   answer_label
0  Cn1cc(C(=O)Nc2ccc(F)cc2-c2ccc(Cl)c(Cl)c2)c(C(F)F)n1  Not fulfilled
1     O=C(Nc1ccccc1-c1ccc(Cl)cc1)c1cccnc1Cl  Not fulfilled
2  OC(Cc1ccccc1Cl)(Cn1[nH]cnc1=S)C1(Cl)CC1 (centres unmarked)      Fulfilled
3  CC(C)CC(C)c1sccc1NC(=O)c1cn(C)nc1C(F)(F)F (centres unmarked)  Not fulfilled
